- System: Z-138 cell line
- EXPERIMENT SUMMARY: Z-138 Proliferation Assay (Cell Titer Glo, 5 days)
- Format: cell-based
- SETTINGS: Homo sapiens, 120 h; Z-138 cells, 5 days, Cell Titer Glo; read-out: Proliferation EC50
pEC50: −log10 of the molar value.
QUANTITY: pEC50

| COMPOUND | QUANTITY | ASSAY RESULT |
| --- | --- | --- |
| CC(=O)N1CC(Nc2cc(C(=O)NC[C@H](O)CN3CCc4ccc(C)cc4C3)ncn2)C1 [Compound 667] | pEC50 | 5.00 to 6.00 |
| O=C(NC[C@H](O)CN1CCc2ccccc2C1)c1cc(NC2CNC2)nc(N2CCN(C(=O)C3CC3)CC2)n1 [Compound 485] | pEC50 | 5.00 to 6.00 |
| CC(=O)N1CC(Nc2cc(C(=O)NC[C@H](O)CN3CCc4ccccc4C3)nc(C)n2)C1 [Compound 450] | pEC50 | 6.00 to 7.00 |
| CC(=O)N1CCN(c2nc(NC3COC3)cc(C(=O)NC[C@H](O)CN3CCc4ccccc4C3)n2)CC1 [Compound 497] | pEC50 | > 7.00 |
| O=C(NC[C@H](O)CN1CCc2ccccc2C1)c1cc(NC2CNC2)nc(N2CCNCC2)n1 [Compound 453] | pEC50 | < 4.70 |

Input line: Annotate the compound COCCO[C@H]1C[C@@H](Nc2cc(C(=O)NC[C@H](O)CN3CCc4ccccc4C3)ncn2)C1 [Compound 560] with its measured pEC50.
Output line: 6.00 to 7.00

Input line: Annotate the compound O=C(NC[C@H](O)CN1CCc2ccccc2C1)c1cc(N[C@H]2C[C@H](C(=O)N3CCC3)C2)ncn1 [Compound 509] with its measured pEC50.
Output line: > 7.00

Input line: Annotate the compound CC(NC(=O)c1cc(NC2CCNCC2)ncn1)C(O)CN1CCc2ccccc2C1 (centres unmarked) [Compound 534] with its measured pEC50.
Output line: < 5.30

Input line: Annotate the compound CC(O)(CNC(=O)c1cc(NC2CCN(C(=O)C3CC3)CC2)ncn1)CN1CCc2ccccc2C1 (centres unmarked) [Compound 650] with its measured pEC50.
Output line: 5.00 to 6.00

Input line: Annotate the compound CC(=O)N1CCC(Nc2cc(C(=O)NC[C@H](O)CN3CCc4ccccc4C3)cc(N3CCOCC3)n2)CC1 [Compound 611] with its measured pEC50.
Output line: > 7.00

Input line: Annotate the compound O=C(NC[C@H](O)CN1CCc2ccccc2C1)c1cc(NC2CN(C(=O)C3CC3)C2)ccn1 [Compound 636] with its measured pEC50.
Output line: > 7.00

Input line: Annotate the compound CNC(=O)CN1CCC(Nc2cc(C(=O)NC[C@H](O)CN3CCc4ccccc4C3)ncn2)CC1 [Compound 533] with its measured pEC50.
Output line: > 7.00

Input line: Annotate the compound CC(=O)N1CC(Nc2cc(C(=O)NC[C@H](O)CN3CCc4ccccc4C3)nc(C(F)(F)F)n2)C1 [Compound 474] with its measured pEC50.
Output line: 6.00 to 7.00

Input line: Annotate the compound Cc1cccc2c1CCN(C[C@@H](O)CNC(=O)c1cc(NC3COC3)ncn1)C2 [Compound 683] with its measured pEC50.
Output line: < 5.30

====

The entries below are paired with their reported EC50.
- Tested on: Z-138 cell line
- EXPERIMENT SUMMARY: Z-138 Proliferation Assay (Cell Titer Glo, 5 days)
- Assay type: cell-based
- SETTINGS: Homo sapiens, 120 h; Z-138 cells, 5 days, Cell Titer Glo; read-out: Proliferation EC50

Consider the worked cases shown below.
| COMPOUND | EC50 |
| --- | --- |
| Cc1cnc(NC2CCN(C)C2)cc1C(=O)NC[C@H](O)CN1CCc2ccccc2C1 (stereo partly shown) [Compound 401] | 1000 to 10000 nM |
| Cc1ccc2c(c1)CCN(C[C@@H](O)CNC(=O)c1cc(NC3COC3)ncn1)C2 [Compound 681] | > 5000 nM |
| CC(C)(C)C(=O)N1CC(Nc2cc(C(=O)NC[C@H](O)CN3CCc4ccccc4C3)ccn2)C1 [Compound 505] | 101 to 1000 nM |

Input line: Name the value of EC50 reported for Cc1cccc2c1CN(C[C@@H](O)CNC(=O)c1cc(NC3COC3)ncn1)CC2 [Compound 673] when tested on Z-138 cell line.
Output line: 1000 to 10000 nM

Input line: Name the value of EC50 reported for COCCN(CCOC)[C@H]1C[C@@H](Nc2cc(C(=O)NC[C@H](O)CN3CCc4ccccc4C3)ncn2)C1 [Compound 562] when tested on Z-138 cell line.
Output line: 101 to 1000 nM

Input line: Name the value of EC50 reported for CC(=O)N(C)[C@H]1CC[C@@H](Nc2cc(C(=O)NC[C@H](O)CN3CCc4ccccc4C3)ncn2)CC1 [Compound 632] when tested on Z-138 cell line.
Output line: 101 to 1000 nM

Input line: Name the value of EC50 reported for CC(=O)N1CCC[C@@H](Nc2cc(C(=O)NC[C@H](O)CN3CCc4ccccc4C3)ncn2)C1 [Compound 571] when tested on Z-138 cell line.
Output line: 1000 to 10000 nM

====

- Test system: Z-138 cell line
- EXPERIMENT SUMMARY: Z-138 Proliferation Assay (Cell Titer Glo, 5 days)
- Type: cell-based
- SETTINGS: Homo sapiens, 120 h; Z-138 cells, 5 days, Cell Titer Glo; read-out: Proliferation EC50
- Procedure: RPMI/Glutamax medium, penicillin-streptomycin, heat inactivated fetal bovine serum were purchased from Life Technologies, Grand Island, N.Y., USA. V-bottom polypropylene 384-well plates were purchased from Greiner Bio-One, Monroe, N.C., USA. […] SpectraMax M5 plate reader was purchased from Molecular Devices LLC, Sunnyvale, Calif., USA. […] Cell viability was measured by quantitation of ATP present in the cell cultures, adding […] of Cell Titer Glo® reagent to the cell plates. […]
pEC50: −log10 of the molar value.
The entries below are paired with their reported pEC50.

| MOLECULE | pEC50 |
| --- | --- |
| C[C@H](N1CC(Nc2cc(C(=O)NC[C@H](O)CN3CCc4ccccc4C3)ncn2)C1)C(F)(F)F | 5.00 to 6.00 |
| CN[C@H]1CC[C@H](Nc2cc(C(=O)NC[C@H](O)CN3CCc4ccccc4C3)ncn2)CC1 | 6.00 to 7.00 |
| O=C(NC[C@H](O)CN1CCc2ccccc2C1)c1cnnc(NC2CCOC2)c1 (stereo partly shown) | 6.00 to 7.00 |
| O=C(NC[C@H](O)CN1CCc2ccccc2C1)c1cc(NC2COC2)nc(NC2COC2)n1 | > 7.00 |
| CC(=O)N1CCC(Nc2cc(C(=O)NCC(C)CN3CCc4ccccc4C3)ncn2)CC1 (stereo not shown) | 6.00 to 7.00 |

Input line: Annotate the molecule CN1CCCCC1CNc1cc(C(=O)NC[C@H](O)CN2CCc3ccccc3C2)ccn1 (stereo partly shown) with its measured pEC50.
Output line: 6.00 to 7.00

Input line: Annotate the molecule `O=C(NC[C@H](O)CN1CCc2ccccc2C1)c1cc(N[C@H]2C[C@H](C(=O)N3CCCCC3)C2)ncn1` with its measured pEC50.
Output line: > 7.00

Input line: Annotate the molecule `O=C(NC[C@H](O)CN1CCc2ccccc2C1)c1cc(NC2CNC2)nc(N2CCC2)n1` with its measured pEC50.
Output line: 5.00 to 6.00

Input line: Annotate the molecule `CS(=O)(=O)CCN1CC(Nc2cc(C(=O)NC[C@H](O)CN3CCc4ccccc4C3)ncn2)C1` with its measured pEC50.
Output line: < 5.30

Input line: Annotate the molecule `O=C(NC[C@H](O)CN1CCc2ccccc2C1)c1cc(NC2COC2)nc(N2CCCCC2)n1` with its measured pEC50.
Output line: > 7.00

Input line: Annotate the molecule `O=C(NC[C@H](O)CN1CCc2ccccc2C1)c1cc(N[C@H]2C[C@H](O)C2)ncn1` with its measured pEC50.
Output line: 6.00 to 7.00

Input line: Annotate the molecule `CO[C@H]1CC[C@@H](N(C)c2cc(C(=O)NC[C@H](O)CN3CCc4ccccc4C3)ncn2)CC1` with its measured pEC50.
Output line: 5.00 to 6.00

Input line: Annotate the molecule CC(C)(O)CNCC1CN2C=NC(C(=O)NC[C@H](O)CN3CCc4ccccc4C3)=CC2=N1 (stereo partly shown) with its measured pEC50.
Output line: 5.00 to 6.00

====

- STUDY TARGET: PRMT5/MEP50 (Homo sapiens (Human), UniProt O14744)
- Sequence (O14744 other isoform, or with tags, fused parts or gaps): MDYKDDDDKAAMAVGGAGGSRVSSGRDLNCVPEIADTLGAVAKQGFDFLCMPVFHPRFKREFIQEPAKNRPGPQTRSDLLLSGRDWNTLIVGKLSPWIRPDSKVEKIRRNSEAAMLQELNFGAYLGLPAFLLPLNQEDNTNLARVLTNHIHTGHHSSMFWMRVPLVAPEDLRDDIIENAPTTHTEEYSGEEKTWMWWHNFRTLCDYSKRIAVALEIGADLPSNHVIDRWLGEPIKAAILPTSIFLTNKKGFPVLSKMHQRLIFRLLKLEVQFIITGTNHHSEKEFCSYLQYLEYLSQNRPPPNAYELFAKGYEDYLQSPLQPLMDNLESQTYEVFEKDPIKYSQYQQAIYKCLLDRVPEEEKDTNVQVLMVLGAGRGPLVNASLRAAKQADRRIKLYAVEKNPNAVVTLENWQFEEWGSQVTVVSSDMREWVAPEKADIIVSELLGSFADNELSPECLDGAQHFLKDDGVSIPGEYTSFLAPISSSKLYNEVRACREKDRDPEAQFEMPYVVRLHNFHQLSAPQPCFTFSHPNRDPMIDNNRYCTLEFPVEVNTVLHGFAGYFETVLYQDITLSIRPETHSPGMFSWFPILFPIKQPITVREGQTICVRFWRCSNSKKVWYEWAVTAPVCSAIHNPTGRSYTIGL
- Sequence (Q9BQA1 other isoform, or with tags, fused parts or gaps partner): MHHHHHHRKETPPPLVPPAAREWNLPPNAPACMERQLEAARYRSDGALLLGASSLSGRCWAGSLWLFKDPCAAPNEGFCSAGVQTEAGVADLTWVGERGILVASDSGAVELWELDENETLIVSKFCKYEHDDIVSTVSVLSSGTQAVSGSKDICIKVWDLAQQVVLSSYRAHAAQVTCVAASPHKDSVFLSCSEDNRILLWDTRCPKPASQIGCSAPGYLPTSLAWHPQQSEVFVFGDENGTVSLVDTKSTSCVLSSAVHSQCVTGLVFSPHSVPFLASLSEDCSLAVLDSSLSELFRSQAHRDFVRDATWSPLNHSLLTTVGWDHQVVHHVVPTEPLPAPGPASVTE
- EXPERIMENT SUMMARY: PRMT5 Biochemical Assay (PRMT5/MEP50 enzyme assay on peptide substrate, 3H-SAM Flashplate)
- SETTINGS: PRMT5 biochemical assay
QUANTITY: IC50

| MOLECULE | IC50 |
| --- | --- |
| CC(NC(=O)c1cc(NC2COC2)ncn1)[C@H](O)CN1CCc2ccccc2C1 (some centres unmarked) | 1000 to 10000 nM |
| CC(=O)N1CC(Nc2cc(C(=O)NC(C)C(O)CN3CCc4ccccc4C3)ncn2)C1 (centres unmarked) | 101 to 1000 nM |
| CC(C)(O)CN1CCC(Nc2cc(C(=O)NC[C@H](O)CN3CCc4ccccc4C3)ncn2)CC1 | < 100 nM |
| Cc1cc(Nc2cc(C(=O)NC[C@H](O)CN3CCc4ccccc4C3)ccn2)n[nH]1 | < 100 nM |

Input line: Name the value of IC50 reported for `CC(=O)N1CC(Nc2cc(C(=O)NC[C@H](O)CN3CCc4c(C)cccc4C3)ncn2)C1` when tested on PRMT5/MEP50 (Homo sapiens (Human), UniProt O14744).
Output line: < 100 nM

Input line: Name the value of IC50 reported for `O=C(NC[C@H](O)CN1CCc2ccccc2C1)c1cc(NC2COC2)nc(C(F)(F)F)n1` when tested on PRMT5/MEP50 (Homo sapiens (Human), UniProt O14744).
Output line: < 100 nM

Input line: Name the value of IC50 reported for `CC(=O)N1CCC(Nc2cc(C(=O)NC[C@H](O)CN3CCc4cccc(C)c4C3)ccn2)CC1` when tested on PRMT5/MEP50 (Homo sapiens (Human), UniProt O14744).
Output line: < 100 nM

Input line: Name the value of IC50 reported for `CC(C)CC(=O)N1CCC(Nc2cc(C(=O)NC[C@H](O)CN3CCc4ccccc4C3)ncn2)CC1` when tested on PRMT5/MEP50 (Homo sapiens (Human), UniProt O14744).
Output line: < 100 nM
